# Tested on: Staphylococcus aureus MW2 delta-mecA (mecA-)
# protocol: normalized GFP fluorescence (growth of mecA- strain) (fraction of control range); higher = more growth of mecA- strain
# details: compound concentration: 150 uM; cefoxitin: subinhibitory; fluorescent label: GFP
Where a name gives a salt, the structure may show the parent alone.
Category key, based on recorded normalized GFP fluorescence: A (below 0.1), B (0.1 to below 0.4), C (0.4 or more)

{"compound": "CC(=O)OCC(CCn1cnc2cnc(N)nc21)COC(C)=O", "class": "B"}
{"compound": "CNC(=O)CN(CCN(CCN(CC(=O)O)CC(=O)NC)CC(=O)O)CC(=O)O.O.[Gd] [Gadodiamide (Omniscan)]", "class": "C"}
{"compound": "CN(C)CCOC(=O)C(c1ccccc1)C1(O)CCCC1 (stereo not drawn)", "class": "B"}
{"compound": "Nc1ncn([C@@H]2O[C@H](CO)[C@@H](O)[C@H]2O)c(=O)n1", "class": "B"}
{"compound": "O=C(O)CCCC[C@@H]1SC[C@@H]2NC(=O)N[C@@H]21", "class": "C"}
{"compound": "CCOC(=O)N1CCC(=C2c3ccc(Cl)cc3CCc3cccnc32)CC1", "class": "A"}
{"compound": "COc1cc(Nc2ncc(F)c(Nc3ccc4c(n3)N(COP(=O)(O)O)C(=O)C(C)(C)O4)n2)cc(OC)c1OC [R788 (Fostamatinib)]", "class": "C"}
{"compound": "CCOc1ccccc1OC(c1ccccc1)C1CNCCO1 (stereo not drawn) [Reboxetine mesylate]", "class": "C"}
{"compound": "CN[C@@H]1[C@H](O)[C@H](NC)[C@H]2O[C@@]3(O)C(=O)C[C@@H](C)O[C@H]3O[C@@H]2[C@H]1O", "class": "B"}
{"compound": "Cc1nnc(C(=O)NC(C)(C)c2nc(C(=O)NCc3ccc(F)cc3)c(O)c(=O)n2C)o1", "class": "A"}
{"compound": "COc1cc(NS(=O)(=O)c2ccc(N)cc2)nc(OC)n1", "class": "B"}
{"compound": "CN1CCCC(n2nc(Cc3ccc(Cl)cc3)c3ccccc3c2=O)CC1 (stereo not drawn) [Azelastine hydrochloride (Astelin)]", "class": "B"}
{"compound": "COc1cc(CNC(=O)CCCC/C=C/C(C)C)ccc1O", "class": "A"}
{"compound": "COc1cc(C)c(/C=C/C(C)=C/C=C/C(C)=C/C(=O)O)c(C)c1C", "class": "A"}
{"compound": "NC(=O)c1cccnc1 [Nicotinamide (Niacinamide)]", "class": "C"}
{"compound": "CN[C@@H]1[C@H](O[C@H]2[C@H](O[C@H]3[C@H](O)[C@@H](O)[C@H](N=C(N)N)[C@@H](O)[C@@H]3N=C(N)N)O[C@@H](C)[C@]2(O)C=O)O[C@@H](CO)[C@H](O)[C@H]1O", "class": "C"}
{"compound": "NC(=O)N/N=C/c1ccc([N+](=O)[O-])o1", "class": "A"}
{"compound": "Cc1cccc(Nc2ccccc2C(=O)O)c1C", "class": "A"}
{"compound": "Cc1nc2n(c(=O)c1CCN1CCC(c3noc4cc(F)ccc34)CC1)CCCC2O (stereo not drawn)", "class": "B"}
{"compound": "C[C@@H]1C[C@H]2[C@@H]3C[C@H](F)C4=CC(=O)C=C[C@]4(C)[C@@]3(F)[C@@H](O)C[C@]2(C)[C@@]1(O)C(=O)CO", "class": "C"}
{"compound": "CN(C)CCCN1c2ccccc2CCc2ccccc21", "class": "A"}
{"compound": "Cc1ncc([N+](=O)[O-])n1CC(C)O (stereo not drawn)", "class": "B"}
